Assay Explanation: Cytotoxicity against human COLO205 cells after 48 hrs by SRB assay
Format: functional
Setup Conditions: COLO 205, 48 h, pooled result: one value given for 7 cell lines, strains, targets or settings
We label by threshold. Values of GI50 strictly beneath 3 µM are condition met. Values of 3 µM and up are condition not met.

Study these solved cases before continuing.
| Structure As Smiles | Assigned Label |
| --- | --- |
| Cc1nc2cc(Nc3nc(Nc4ccc(F)cc4)nc(N4CCCC4)n3)ccc2n1Cc1ccccc1 | condition met |
| Cc1nc2ccc(Nc3nc(NCCN4CCOCC4)nc(Nc4ccc(F)cc4)n3)cc2n1Cc1ccccc1 | condition met |
| Cc1nc2cc(Nc3nc(Nc4ccc(F)cc4)nc(-c4ccc(Cl)cc4)n3)ccc2n1Cc1ccccc1 | condition not met |

Lab note: GI50 threshold 3 µM. Does this molecule come in strictly under it? Cc1nc2cc(Nc3nc(Nc4ccc(F)cc4)nc(-c4cccs4)n3)ccc2n1Cc1ccccc1
condition not met

Dear reviewer, please state whether Cc1nc2ccc(Nc3nc(Cl)nc(Nc4ccc(F)cc4)n3)cc2n1Cc1ccccc1 has GI50 strictly beneath 3 µM.
condition not met

Determine if Cc1nc2cc(Nc3nc(Nc4ccc(F)cc4)nc(N4CCN(C)CC4)n3)ccc2n1Cc1ccccc1 shows GI50 strictly lower than 3 µM.
condition met

In plain terms, does COc1ccc(-c2nc(Nc3ccc(F)cc3)nc(Nc3ccc4c(c3)nc(C)n4Cc3ccccc3)n2)cc1 come in under 3 µM for GI50?
condition not met

###

Test system: OVCAR-4
Assay Explanation: Cytotoxicity against human OVCAR4 cells at 10 uM after 48 hrs by SRB assay
Format: functional
The source made the active and inactive calls. The rule behind the calls is not given here.
Please state which outcome applies, choosing from active, inactive

Record excerpt, results attached:
| Structure As Smiles | Assigned Label |
| --- | --- |
| Cc1nc2cc(Nc3nc(Nc4ccc(F)cc4)nc(N4CCN(C)CC4)n3)ccc2n1Cc1ccccc1 | active |
| Cc1nc2ccc(Nc3nc(NCCN)nc(Nc4ccc(F)cc4)n3)cc2n1Cc1ccccc1 | inactive |
| Cc1nc2ccc(Nc3nc(Nc4ccc(F)cc4)nc(N4CCCCC4)n3)cc2n1Cc1ccccc1 | inactive |

Please let me know the test result on file for Cc1nc2ccc(Nc3nc(NCCO)nc(Nc4ccc(F)cc4)n3)cc2n1Cc1ccccc1 .
inactive

Field: outcome | Entry: Cc1nc2ccc(Nc3nc(Cl)nc(Nc4ccc(F)cc4)n3)cc2n1Cc1ccccc1
inactive

###

Assay Explanation: Cytotoxicity against human UO31 cells at 10 uM after 48 hrs by SRB assay
Assay type: functional
Setup Conditions: UO-31, 48 h, read-out: GI
Mark Y for reported inhibition of growth at 10 µM of 10% or greater; mark N for anything smaller.

Example results:
| Structure As Smiles | Assigned Label |
| --- | --- |
| Cc1nc2cc(Nc3nc(Cl)nc(Nc4ccc(F)cc4)n3)ccc2n1Cc1ccccc1 | Y |
| Cc1nc2cc(Nc3nc(Nc4ccc(F)cc4)nc(-c4ccccc4)n3)ccc2n1Cc1ccccc1 | Y |
| Cc1nc2cc(Nc3nc(Nc4ccc(O)cc4)nc(Nc4ccc(F)cc4)n3)ccc2n1Cc1ccccc1 | N |
| Cc1nc2ccc(Nc3nc(NCCO)nc(Nc4ccc(F)cc4)n3)cc2n1Cc1ccccc1 | Y |

Confirm if inhibition of growth at 10 µM reported for the compound Cc1nc2ccc(Nc3nc(Nc4ccc(F)cc4)nc(N4CCCCC4)n3)cc2n1Cc1ccccc1 is 10% or above.
Y

###

Test system: HCC 2998
Assay Explanation: Cytotoxicity against human HCC2998 cells at 10 uM after 48 hrs by SRB assay
Assay type: functional
Activity calls are given as the source filed them. No cut-off for these calls is given here.
Your answer must be one of the following: t (active), f (inactive)

Please review the following examples before continuing.
| Structure As Smiles | Assigned Label |
| --- | --- |
| Cc1nc2ccc(Nc3nc(NCCN)nc(Nc4ccc(F)cc4)n3)cc2n1Cc1ccccc1 | f |
| Cc1nc2cc(Nc3nc(Nc4ccc(F)cc4)nc(N4CCN(C)CC4)n3)ccc2n1Cc1ccccc1 | t |
| Cc1nc2cc(Nc3nc(Nc4ccc(F)cc4)nc(Nc4ncccn4)n3)ccc2n1Cc1ccccc1 | f |
| Cc1nc2ccc(Nc3nc(Cl)nc(Nc4ccc(F)cc4)n3)cc2n1Cc1ccccc1 | f |
| Cc1nc2ccc(Nc3nc(NCCO)nc(Nc4ccc(F)cc4)n3)cc2n1Cc1ccccc1 | f |
| Cc1nc2cc(Nc3nc(Nc4ccc(F)cc4)nc(Nc4ccc(F)cc4)n3)ccc2n1Cc1ccccc1 | f |
| Cc1nc2cc(Nc3nc(Nc4ccc(F)cc4)nc(N4CCCC4)n3)ccc2n1Cc1ccccc1 | t |
| Cc1nc2cc(Nc3nc(NCCO)nc(Nc4ccc(F)cc4)n3)ccc2n1Cc1ccccc1 | f |

Could you now consider this next molecule?
Answer briefly: the call reported for Cc1nc2ccc(Nc3nc(Nc4ccc(F)cc4)nc(N4CCCCC4)n3)cc2n1Cc1ccccc1 in this assay.
f

###

Assay Explanation: Cytotoxicity against human HL-60(TB) cells at 10 uM after 48 hrs by SRB assay
Format: functional
Setup Conditions: HL-60, 48 h, read-out: GI
Where inhibition of growth at 10 µM equals or exceeds 30%, the correct label is MET; where it does not, the label is NOT MET.

Solved entries (count: 3):
| Structure As Smiles | Assigned Label |
| --- | --- |
| Cc1nc2cc(Nc3nc(Nc4ccc(O)cc4)nc(Nc4ccc(F)cc4)n3)ccc2n1Cc1ccccc1 | NOT MET |
| Cc1nc2cc(Nc3nc(Cl)nc(Nc4ccc(F)cc4)n3)ccc2n1Cc1ccccc1 | MET |
| Cc1nc2cc(Nc3nc(Nc4ccc(F)cc4)nc(-c4cccs4)n3)ccc2n1Cc1ccccc1 | MET |

Test whether the compound Cc1nc2cc(Nc3nc(Nc4ccc(F)cc4)nc(-c4ccccc4)n3)ccc2n1Cc1ccccc1 records inhibition of growth at 10 µM of 30% or higher.
MET

###

Catalogue of inhibition of growth at 10 µM values
Assay Explanation: Cytotoxicity against human IGROV1 cells at 10 uM after 48 hrs by SRB assay
Format: functional
Setup Conditions: IGROV-1, 48 h, read-out: GI
Return type: number; implicit unit %.

Some solved cases for reference:
| Structure As Smiles | Endpoint Name | Measurement Units | Number |
| --- | --- | --- | --- |
| Cc1nc2cc(Nc3nc(Cl)nc(Nc4ccc(F)cc4)n3)ccc2n1Cc1ccccc1 | inhibition of growth at 10 µM | % | 17 |
| Cc1nc2cc(Nc3nc(Nc4ccc(F)cc4)nc(-c4ccccc4)n3)ccc2n1Cc1ccccc1 | inhibition of growth at 10 µM | % | 31 |
| Cc1nc2ccc(Nc3nc(NCCN)nc(Nc4ccc(F)cc4)n3)cc2n1Cc1ccccc1 | inhibition of growth at 10 µM | % | 0.38 |
| COc1ccc(-c2nc(Nc3ccc(F)cc3)nc(Nc3ccc4c(c3)nc(C)n4Cc3ccccc3)n2)cc1 | inhibition of growth at 10 µM | % | 63.6 |
| Cc1nc2cc(Nc3nc(Nc4ccc(F)cc4)nc(-c4ccc(Cl)cc4)n3)ccc2n1Cc1ccccc1 | inhibition of growth at 10 µM | % | 51.3 |

For the molecule Cc1nc2cc(Nc3nc(Nc4ccc(O)cc4)nc(Nc4ccc(F)cc4)n3)ccc2n1Cc1ccccc1 , what inhibition of growth at 10 µM is on record?
2.23

Need inhibition of growth at 10 µM, item Cc1nc2cc(Nc3nc(Nc4ccc(F)cc4)nc(Nc4ccc(F)cc4)n3)ccc2n1Cc1ccccc1
16.9

Returns the measured inhibition of growth at 10 µM for the input molecule. Input: Cc1nc2cc(Nc3nc(NCCO)nc(Nc4ccc(F)cc4)n3)ccc2n1Cc1ccccc1
11.1

Look up inhibition of growth at 10 µM for this molecule: Cc1nc2ccc(Nc3nc(Cl)nc(Nc4ccc(F)cc4)n3)cc2n1Cc1ccccc1
33.3

###

Assay Explanation: Cytotoxicity against human PC3 cells after 48 hrs by SRB assay
Format: functional
Setup Conditions: PC-3, 48 h, pooled result: one value given for 2 cell lines, strains, targets or settings
Overview of recorded GI50 for various compounds
Field: numeric (µM). Do not append units.

Worked cases, answers included:
| Structure As Smiles | Measurement Units | GI50 |
| --- | --- | --- |
| Cc1nc2ccc(Nc3nc(Cl)nc(Nc4ccc(F)cc4)n3)cc2n1Cc1ccccc1 | µM | 8.27 |
| Cc1nc2cc(Nc3nc(Nc4ccc(F)cc4)nc(-c4cccs4)n3)ccc2n1Cc1ccccc1 | µM | 5.2 |
| Cc1nc2cc(Nc3nc(Nc4ccc(F)cc4)nc(-c4ccc(Cl)cc4)n3)ccc2n1Cc1ccccc1 | µM | 13.5 |
| Cc1nc2ccc(Nc3nc(NCCN4CCOCC4)nc(Nc4ccc(F)cc4)n3)cc2n1Cc1ccccc1 | µM | 4.41 |
| Cc1nc2cc(Nc3nc(Nc4ccc(F)cc4)nc(N4CCCC4)n3)ccc2n1Cc1ccccc1 | µM | 1.82 |
| COc1ccc(-c2nc(Nc3ccc(F)cc3)nc(Nc3ccc4c(c3)nc(C)n4Cc3ccccc3)n2)cc1 | µM | 5.35 |

Now consider the entry below.
Item under review: Cc1nc2cc(Nc3nc(Nc4ccc(F)cc4)nc(N4CCN(C)CC4)n3)ccc2n1Cc1ccccc1 . Reported GI50?
1.89
